- assay-name: Drug repurposing screens with cells derived from glioblastoma tumor samples (AID 1345199); also: % is scaled to controls: 0 for no effect and ±100 for the full control effect
- setup-conditions: GBM patient neurospheres viability, ATP luminescence, 48 h; at 45.9 µM (top of the series); tumour line B
Records with an inconclusive call do not appear.
quantity-measured: activity, negative = cell killing (%)
Express your answer in %, writing the number without its unit.

// query Look up activity, negative = cell killing for this molecule: `COc1ccc(CCNC[C@H](O)c2ccc(O)cc2)cc1OC`
// result -3.8

// query Look up activity, negative = cell killing for this molecule: `CC[C@H]1OC(=O)C[C@@H](O)[C@H](C)[C@@H](O[C@@H]2O[C@H](C)[C@@H](O)[C@H](N(C)C)[C@H]2O)[C@@H](CCN2C[C@H](C)C[C@H](C)C2)C[C@@H](C)C(=O)/C=C/C(C)=C/[C@@H]1CO[C@@H]1O[C@H](C)[C@@H](O)[C@@H](OC)[C@H]1OC`
// result -3.99

// query Look up activity, negative = cell killing for this molecule: `C#CCOc1ccc2c(C)cc(=O)oc2c1`
// result -16.6

// query Look up activity, negative = cell killing for this molecule: `Cc1ccccc1`
// result 6.08
